experiment.summary: gradient 5% acetonitrile 3 min, to 50% in 2 min, to 85% in 15 min, held 3 min, 100 µL/min
experimental.setup: column: Zorbax Extend-C18 2.1 x 50 mm; eluents: water / acetonitrile, 0.1% formic acid
Classify: satisfied when RP-LC retention time is strictly less than 700 s; not satisfied when RP-LC retention time is not.

Query string: Please indicate whether the reported RP-LC retention time of CC(C)(Oc1ccc(Cl)cc1)C(=O)N1CCN(C(=O)C2CC2c2cccs2)CC1 (stereo not given) is strictly below 700 s.
Result string: not satisfied

Query string: Please indicate whether the reported RP-LC retention time of O=C(NC1CC1)C1CCc2sc(C(=O)N3CCCC3)cc2C1 (stereo not given) is strictly below 700 s.
Result string: satisfied

Query string: Please indicate whether the reported RP-LC retention time of Cc1sc2ccn(Cc3ccc(F)cc3)c(=O)c2c1C(=O)NCC1CCCO1 (stereo not given) is strictly below 700 s.
Result string: not satisfied

Query string: Please indicate whether the reported RP-LC retention time of Cc1ccc(-c2nnc(-c3nn(C)c4c3CN(S(=O)(=O)c3c(C)n[nH]c3C)CC4)o2)cc1 is strictly below 700 s.
Result string: not satisfied
